Origin of the recorded values: ChEMBL document CHEMBL1909046

- Study system: Cytochrome P450 2E1 (Homo sapiens, UniProt P05181); note: in other assays of this panel Not Active means under 50% inhibition at 10 µM
- Sequence (P05181 whole entry): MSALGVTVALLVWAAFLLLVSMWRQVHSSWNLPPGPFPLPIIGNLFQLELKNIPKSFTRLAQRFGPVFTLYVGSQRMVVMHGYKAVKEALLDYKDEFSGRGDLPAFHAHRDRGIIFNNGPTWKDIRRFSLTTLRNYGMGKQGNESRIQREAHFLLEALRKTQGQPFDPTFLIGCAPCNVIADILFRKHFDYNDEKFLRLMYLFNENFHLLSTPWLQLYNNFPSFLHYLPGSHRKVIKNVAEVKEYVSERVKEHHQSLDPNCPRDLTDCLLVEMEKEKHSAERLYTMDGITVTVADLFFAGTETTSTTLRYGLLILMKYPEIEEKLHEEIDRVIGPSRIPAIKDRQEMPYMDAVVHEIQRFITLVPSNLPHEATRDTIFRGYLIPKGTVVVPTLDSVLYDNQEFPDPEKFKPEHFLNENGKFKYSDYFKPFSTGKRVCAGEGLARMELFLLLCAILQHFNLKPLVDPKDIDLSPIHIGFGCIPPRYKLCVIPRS
- Cond: bti-tn-5b1-4

| Molecule | Ki |
| --- | --- |
| CN(C)[C@@H]1C(O)=C(C(N)=O)C(=O)[C@@]2(O)C(O)=C3C(=O)c4c(O)cccc4[C@@](C)(O)[C@H]3[C@H](O)[C@@H]12 | Not Active |
| CC1CN(c2cc3c(cc2F)c(=O)c(C(=O)O)cn3-c2ccc(F)cc2F)CCN1 (centres undefined) | Not Active |
| CN(C)CCCN1c2ccccc2CCc2ccc(Cl)cc21 | Not Active |
| OCc1ccccc1 | Not Active |

----------
- Study system: Substance-P receptor (Homo sapiens); note: in other assays of this panel Not Active means under 50% inhibition at 10 µM
- Sequence (P25103 whole entry): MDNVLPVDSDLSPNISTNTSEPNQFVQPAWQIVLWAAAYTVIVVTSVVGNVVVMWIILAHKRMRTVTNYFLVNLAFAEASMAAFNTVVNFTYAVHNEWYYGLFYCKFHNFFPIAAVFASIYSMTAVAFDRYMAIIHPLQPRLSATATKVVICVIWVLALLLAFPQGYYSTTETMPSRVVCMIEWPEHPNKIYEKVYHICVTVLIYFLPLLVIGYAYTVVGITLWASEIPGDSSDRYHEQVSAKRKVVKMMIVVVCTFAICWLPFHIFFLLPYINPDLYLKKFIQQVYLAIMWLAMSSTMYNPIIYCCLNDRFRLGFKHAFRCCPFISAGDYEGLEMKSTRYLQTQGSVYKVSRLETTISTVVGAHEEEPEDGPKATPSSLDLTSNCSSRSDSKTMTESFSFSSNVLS
- Format: cell membranes, CHO, Membrane
- Cond: cho
Property: IC50

Example entries and their recorded answers appear below.
| Compound | IC50 |
| --- | --- |
| Cc1ncc([N+](=O)[O-])n1CC(C)O (stereo unspecified) | Not Active |
| O=C(O)c1cn(C2CC2)c2cc(N3CCNCC3)c(F)cc2c1=O | Not Active |
| Nc1ccc(S(N)(=O)=O)cc1 [SULFANILAMIDE] | Not Active |
| CN[C@@H]1[C@@H](O)[C@@H](O[C@@H]2[C@@H](O)[C@H](O[C@H]3OC(CN)=CC[C@H]3N)[C@@H](N)C[C@H]2N)OC[C@]1(C)O | Not Active |
| CCc1ccc(C(=O)C(C)CN2CCCCC2)cc1 (stereo unspecified) | Not Active |

Task item: Requested field: IC50. Item: COC(=O)[C@@H]1[C@H]2C[C@H]3c4[nH]c5ccccc5c4CCN3C[C@@H]2CC[C@@H]1O
Reply: Not Active

----------
- Study system: Adenosine receptor A1 (Homo sapiens, UniProt P30542); note: in other assays of this panel Not Active means under 50% inhibition at 10 µM;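 note: radioligand binding assay at the adenosine A1 receptor, with DPCPX serving as the labelled ligand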
- Sequence (P30542 whole entry): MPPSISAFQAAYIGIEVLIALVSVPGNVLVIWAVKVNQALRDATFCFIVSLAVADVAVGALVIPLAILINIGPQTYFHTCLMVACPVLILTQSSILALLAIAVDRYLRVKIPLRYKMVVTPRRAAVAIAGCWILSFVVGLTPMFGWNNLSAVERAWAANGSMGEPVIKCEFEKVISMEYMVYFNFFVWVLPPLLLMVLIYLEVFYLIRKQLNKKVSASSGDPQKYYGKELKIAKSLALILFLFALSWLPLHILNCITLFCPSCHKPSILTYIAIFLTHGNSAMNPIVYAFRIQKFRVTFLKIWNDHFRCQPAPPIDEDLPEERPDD
- Assay type: cell membranes, CHO, Membrane
- Cond: read-out: IC50
For each entry below, report its IC50 value.
Answers are plain numbers, in µM.

| Input smiles | Display unit | Assay value |
| --- | --- | --- |
| O=c1cc(-c2ccccc2)oc2c1ccc1ccccc12 | µM | 1.13 |

Could you now look at the following compound, please?
Task item: Need IC50, item COC(=O)C1=C(C)NC(C)=C(C(=O)OC)C1c1ccccc1[N+](=O)[O-]
Reply: 7.7

----------
- Experimental protocol: DRUGMATRIX: Phosphodiesterase PDE4 enzyme inhibition (substrate: [3H]cAMP + cAMP)
- Cond: u-937; Not Active = under 50% inhibition at 10 µM
Property: IC50

| Molecule | IC50 |
| --- | --- |
| COc1ccc([C@@H]2Sc3ccccc3N(CCN(C)C)C(=O)[C@@H]2OC(C)=O)cc1 [DILTIAZEM] | Not Active |
| c1ccc2c(c1)cc1ccc3cccc4ccc2c1c34 | Not Active |
| Nc1nc(=O)[nH]cc1F [FLUCYTOSINE] | Not Active |
| COc1ccc(CN(CCN(C)C)c2ccccn2)cc1 [PYRILAMINE] | Not Active |
| CC(=O)CCCCn1c(=O)c2c(ncn2C)n(C)c1=O [PENTOXIFYLLINE] | Not Active |

Task item: Consider the molecule OCc1ccccc1 [BENZYL ALCOHOL] and give its measured IC50.
Reply: Not Active

----------
Please go through the items and note down their Ki.
- Study system: D(1A) dopamine receptor (Homo sapiens)
- Sequence (P21728 whole entry): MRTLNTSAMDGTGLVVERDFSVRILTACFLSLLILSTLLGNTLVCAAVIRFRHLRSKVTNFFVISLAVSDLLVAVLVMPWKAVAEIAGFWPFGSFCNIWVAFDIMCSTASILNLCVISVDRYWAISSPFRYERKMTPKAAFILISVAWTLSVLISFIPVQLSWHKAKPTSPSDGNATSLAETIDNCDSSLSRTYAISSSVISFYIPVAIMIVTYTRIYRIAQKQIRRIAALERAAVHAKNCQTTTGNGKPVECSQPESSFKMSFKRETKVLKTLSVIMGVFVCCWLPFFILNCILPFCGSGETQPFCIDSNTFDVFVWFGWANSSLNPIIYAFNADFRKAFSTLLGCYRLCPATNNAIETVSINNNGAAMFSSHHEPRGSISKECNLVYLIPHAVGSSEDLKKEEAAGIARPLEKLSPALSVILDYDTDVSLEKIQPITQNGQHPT
- Experimental protocol: DRUGMATRIX: Dopamine D1 radioligand binding (ligand: [3H] SCH-23390)
- Type: cell membranes, CHO, Membrane
- Cond: Not Active = under 50% inhibition at 10 µM; read-out: Ki
One number for each entry, in nM.

| Input smiles | Display unit | Assay value |
| --- | --- | --- |
| CNCCC=C1c2ccccc2CCc2ccccc21 | nM | 269 |

Task item: Entry CN1C[C@H](C(=O)N[C@]2(C)O[C@@]3(O)[C@@H]4CCCN4C(=O)[C@H](Cc4ccccc4)N3C2=O)C=C2c3cccc4[nH]cc(c34)C[C@H]21 has what Ki?
Reply: 864
